The values you see were collected from ChEMBL document CHEMBL5665443.

Target: Adenine DNA glycosylase (Homo sapiens) (UniProt Q9UIF7);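 note: human MUTYH activity read as 594 nm fluorescence from cleavage and release of a quenched DNA duplex, coupled with APE1 for strand incision, lower signal meaning inhibition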
Sequence (whole entry): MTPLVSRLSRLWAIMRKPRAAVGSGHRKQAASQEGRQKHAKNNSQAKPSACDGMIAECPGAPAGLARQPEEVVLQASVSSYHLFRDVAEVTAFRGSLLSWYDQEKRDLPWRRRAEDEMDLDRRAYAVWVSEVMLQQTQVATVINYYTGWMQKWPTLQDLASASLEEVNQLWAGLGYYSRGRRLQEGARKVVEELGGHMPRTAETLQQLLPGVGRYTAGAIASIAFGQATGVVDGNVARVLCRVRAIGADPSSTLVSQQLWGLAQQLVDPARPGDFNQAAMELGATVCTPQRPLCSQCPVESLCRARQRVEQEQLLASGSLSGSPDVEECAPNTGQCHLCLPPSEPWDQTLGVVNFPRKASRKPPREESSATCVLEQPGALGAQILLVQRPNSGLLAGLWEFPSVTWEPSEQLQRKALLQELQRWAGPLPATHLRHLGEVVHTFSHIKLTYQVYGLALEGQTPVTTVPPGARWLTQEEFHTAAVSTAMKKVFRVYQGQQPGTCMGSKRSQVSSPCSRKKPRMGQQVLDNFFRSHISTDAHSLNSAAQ
Test context: Compound Concentration 10.0 uM, Hit No
Description: Inhibition of MUTYH by quantifying inhibition of MUTYH-mediated cleavage and dissociation of quenched duplex DNA oligonucleotides, measured as fluorescence at 594 nm. To generate a functional strand incision and increase turn-over this assay is coupled to APE1.

# Smiles notation, inhibition (%)
measured = [
    ("O=C(c1cc(C2CC2)on1)N(C1CCCCC1)C1CCCCC1", 24.8),
    ("CC(C)(O)c1ccccc1CC[C@@H](SCC1(CC(=O)O)CC1)c1cccc(/C=C/c2ccc3ccc(Cl)cc3n2)c1", 47.1),
    ("O=c1cc(-c2cc(F)c(Cl)nc2Cl)[nH]c2c(-c3ccccc3)c(C(F)(F)F)nn12", 63.1),
    ("Cc1nc(N2CC[C@@H](O)C2)ncc1-c1cc(C(F)(F)F)cc2[nH]ncc12", -2.45),
    ("CC(=O)C1=C(C)N(c2cccc(C(F)(F)F)c2)C(=O)N[C@H]1c1ccc(C#N)nc1", -5.95),
]
